tested on: Escherichia coli; experiment: Antibacterial activity against ESBL-producing multidrug-resistant Escherichia coli clinical isolate 14-1 assessed as inhibition of bacterial growth incubated for 18 to 20 hrs by two fold serial dilution assay; type: functional; details: time 18-20 hrs
Each entry below carries its reported MIC.
Enter your answer as a number in µg/mL; do not include the unit.

# annotated cases, reported MIC shown
- Compound: "CC(C)(O/N=C(\\C(=O)N[C@@H]1C(=O)N2C(C(=O)O)=C(CS[C@H]3CC[C@@H](NC(=O)c4ccc(O)c(O)c4Cl)CC3)CS[C@H]12)c1csc(N)n1)C(=O)O.O=C(O)C(F)(F)F"
  MIC [µg/mL]: 0.125
- Compound: "CC(C)(O/N=C(\\C(=O)N[C@@H]1C(=O)N2C(C(=O)[O-])=C(C[N+]3(CCNC(=O)c4ccc(O)c(O)c4Cl)CCCC3)CS[C@H]12)c1csc(N)n1)C(=O)O"
  MIC [µg/mL]: 0.125
- Compound: "CC(C)(O/N=C(\\C(=O)N[C@@H]1C(=O)N2C(C(=O)O)=C(CSCCCNC(=O)c3ccc(O)c(O)c3Cl)CS[C@H]12)c1csc(N)n1)C(=O)O.O=C(O)C(F)(F)F"
  MIC [µg/mL]: 0.125
- Compound: "C[C@@](O/N=C(\\C(=O)N[C@@H]1C(=O)N2C(C(=O)O)=C(CSCCNC(=O)c3ccc(O)c(O)c3Cl)CS[C@H]12)c1nc(N)sc1Cl)(C(=O)O)C(F)(F)F.O=C(O)C(F)(F)F"
  MIC [µg/mL]: 0.06
- Compound: "Nc1nc(/C(=N/OC(C(=O)O)C2CCCCC2)C(=O)N[C@@H]2C(=O)N3C(C(=O)O)=C(CSCCNC(=O)c4ccc(O)c(O)c4Cl)CS[C@H]23)c(Br)s1.O=C(O)C(F)(F)F (some centres not stated)"
  MIC [µg/mL]: 1
- Compound: "Nc1nc(/C(=N/OC(C(=O)O)C2CCC(F)(F)CC2)C(=O)N[C@@H]2C(=O)N3C(C(=O)O)=C(CSCCNC(=O)c4ccc(O)c(O)c4Cl)CS[C@H]23)c(Br)s1.O=C(O)C(F)(F)F (some centres not stated)"
  MIC [µg/mL]: 0.125
- Compound: "C[C@@H](O)[C@H]1C(=O)N2C(C(=O)O)=C(S[C@@H]3CN[C@H](C(=O)N(C)C)C3)[C@H](C)[C@H]12"
  MIC [µg/mL]: 0.125
- Compound: "Nc1nc(/C(=N/OC(C(=O)O)C2CCC(F)(F)CC2)C(=O)N[C@@H]2C(=O)N3C(C(=O)O)=C(CSCCNC(=O)c4ccc(O)c(O)c4Cl)CS[C@H]23)ns1.O=C(O)C(F)(F)F (some centres not stated)"
  MIC [µg/mL]: 1

Look up MIC for this compound: Nc1nc(/C(=N/O[C@@H](C(=O)O)C2CCC(F)(F)CC2)C(=O)N[C@@H]2C(=O)N3C(C(=O)O)=C(CSCCNC(=O)c4ccc(O)c(O)c4Cl)CS[C@H]23)cs1.O=C(O)C(F)(F)F
0.25

Look up MIC for this compound: CC(C)[C@H](O/N=C(\C(=O)N[C@@H]1C(=O)N2C(C(=O)O)=C(CSCCNC(=O)c3ccc(O)c(O)c3Cl)CS[C@H]12)c1csc(N)n1)C(=O)O.O=C(O)C(F)(F)F
0.125

Look up MIC for this compound: CC(C)[C@@H](O/N=C(\C(=O)N[C@@H]1C(=O)N2C(C(=O)O)=C(CSCCNC(=O)c3ccc(O)c(O)c3Cl)CS[C@H]12)c1csc(N)n1)C(=O)O.O=C(O)C(F)(F)F
0.125

Look up MIC for this compound: Nc1nc(/C(=N/OC(C(=O)O)C2CC2)C(=O)N[C@@H]2C(=O)N3C(C(=O)O)=C(CSCCNC(=O)c4ccc(O)c(O)c4Cl)CS[C@H]23)cs1.O=C(O)C(F)(F)F (some centres not stated)
0.5
